- TARGET_UNDER_TEST: gEgI WT: HSV2 gEgI heterodimer comprising gE and gI wildtype ectodomains (HSV2, UniProt P89475 21-416; P06764 21-256)
- ASSAY_NOTES: SPR binning; gEgI captured by mAb 10
Hi there, I'd appreciate the recorded RU for every entry that follows.
API: value field is a number in RU; no unit string.

Query mAb clone 39 (antibody, V domains shown) VH: EVKLVESGGGLVQPGGSLKLSCAASGFTFSSYTMSWVRQTPEKRLEWVAYISNGGGSTYYPDTVKGRFTISRDNAKNTLYLQMSSLKSEDTAMYYCARGVSYYGDLYYFDYWGQGTTLTVSS VL: DVVVTQTPLSLPVSFGDQVSISCRSSQSLANSYGNTYLSWYLHKPGQSPQLLIYGISNRFSGVPDRFSGSGSGTDFTLKISTIKPEDLGMYYCLQGTHQPWTFGGGTKLEIK yields RU of 2.3

Query mAb clone 40 (antibody, V domains shown) VH: QIQLVQSGPELKKPGETVKISCKASGYTFTNYGMNWVKQAPGKGLKWMGWINTYTGEPTYADDFKGRFAFSLETSASTAYLQINNLKNEDTATYFCARSLYGYDEGYFDVWGAGTTVTVSS VL: DIQMTQSPASLSASVGETVTITCRASGNIHNYLAWYQQKQGKSPQLLVYNAKTLADGVPSRFSGSGSGTQYSLKINSLQPEDFGSYYCQHFWSTPYTFGGGTKLEIK yields RU of 9.8

Query mAb clone 19 (antibody, V domains shown) VH: QVQLQQSGAELVRPGVSVKISCKGSGYTFTDYAMHWVKQSHAKSLEWIGVISTYYGDARYNQKFKGKATMTVDKSSSTAYMELARLTSEDSAIYYCARRGITVVADYAMDYWGQGTSVTVSS VL: QIVLTQSPAIMSASPGEKVTMSCSASSSVTYMHWYQQKSGTSPKRWIYDTSKLASGVPARFSGSGSGTSYSLTISSMEAEDAATYYCQQWSSNPPTFGGGTKLEIK yields RU of 24.4
